Origin of the recorded values: patent US8227508B2

pIC50: −log10 of the molar value.
monoamine oxidase A (MAO-A) (Homo sapiens, UniProt P21397): recorded pIC50 for assorted compounds
Sequence (P21397 whole entry, species assumed): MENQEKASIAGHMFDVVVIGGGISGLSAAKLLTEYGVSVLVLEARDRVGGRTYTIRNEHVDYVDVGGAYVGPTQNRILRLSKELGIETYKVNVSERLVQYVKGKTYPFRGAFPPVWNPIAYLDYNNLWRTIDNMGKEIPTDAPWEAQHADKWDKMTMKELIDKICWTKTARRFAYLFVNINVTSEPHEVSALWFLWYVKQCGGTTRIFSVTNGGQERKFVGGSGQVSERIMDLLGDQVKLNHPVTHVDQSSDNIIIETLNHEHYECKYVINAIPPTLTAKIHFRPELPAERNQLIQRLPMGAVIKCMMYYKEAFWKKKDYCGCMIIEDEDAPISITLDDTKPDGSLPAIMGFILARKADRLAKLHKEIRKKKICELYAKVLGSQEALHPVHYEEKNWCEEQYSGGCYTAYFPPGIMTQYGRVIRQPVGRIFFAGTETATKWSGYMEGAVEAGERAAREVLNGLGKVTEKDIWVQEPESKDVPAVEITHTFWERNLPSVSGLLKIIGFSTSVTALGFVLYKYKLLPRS
MEASURE: pIC50

SMILES STR	MEASURE	EXPERIMENTAL VALUE
CC(C)c1cc2c(c(O)c1O)[C@@]13CCCC(C)(C)[C@@H]1C[C@@H]2OC3=O	pIC50	5.40
CC(C)c1cc2c(c(O)c1O)[C@@]13CCCC(C)(C)[C@@H]1[C@H](OC3=O)[C@H]2O	pIC50	5.52

###

UniProtKB P27338: recorded IC50 for assorted compounds
Sequence (P27338 whole entry, species assumed): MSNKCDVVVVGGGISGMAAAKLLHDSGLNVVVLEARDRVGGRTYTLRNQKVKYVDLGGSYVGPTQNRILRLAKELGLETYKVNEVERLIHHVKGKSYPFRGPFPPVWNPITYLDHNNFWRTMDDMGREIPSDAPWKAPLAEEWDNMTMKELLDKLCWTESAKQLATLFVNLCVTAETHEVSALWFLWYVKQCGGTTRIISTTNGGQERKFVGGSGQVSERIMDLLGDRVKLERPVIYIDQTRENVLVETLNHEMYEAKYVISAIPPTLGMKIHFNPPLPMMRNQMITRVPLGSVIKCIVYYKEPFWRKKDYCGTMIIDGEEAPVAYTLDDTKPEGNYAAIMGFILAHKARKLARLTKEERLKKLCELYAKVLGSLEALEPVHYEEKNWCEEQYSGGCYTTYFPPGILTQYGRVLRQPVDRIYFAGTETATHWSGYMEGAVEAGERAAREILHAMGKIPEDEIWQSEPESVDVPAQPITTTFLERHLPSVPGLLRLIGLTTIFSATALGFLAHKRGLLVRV
MEASURE: IC50 (µM)

SMILES STR	TARGET OR TEST SYSTEM	EXPERIMENTAL VALUE
CC(C)c1cc2c(c(O)c1O)[C@@]13CCCC(C)(C)[C@@H]1[C@H](OC3=O)[C@H]2O	UniProtKB P27338	73.3
CC(C)c1cc2c(c(O)c1O)[C@@]13CCCC(C)(C)[C@@H]1C[C@@H]2OC3=O	UniProtKB P27338	107

###

Reported pIC50 is given for each of the following molecules.
TARGET OR TEST SYSTEM: human serotonin re-uptake transporter (hSERT) (Homo sapiens, UniProt P31645)
Sequence (P31645 whole entry): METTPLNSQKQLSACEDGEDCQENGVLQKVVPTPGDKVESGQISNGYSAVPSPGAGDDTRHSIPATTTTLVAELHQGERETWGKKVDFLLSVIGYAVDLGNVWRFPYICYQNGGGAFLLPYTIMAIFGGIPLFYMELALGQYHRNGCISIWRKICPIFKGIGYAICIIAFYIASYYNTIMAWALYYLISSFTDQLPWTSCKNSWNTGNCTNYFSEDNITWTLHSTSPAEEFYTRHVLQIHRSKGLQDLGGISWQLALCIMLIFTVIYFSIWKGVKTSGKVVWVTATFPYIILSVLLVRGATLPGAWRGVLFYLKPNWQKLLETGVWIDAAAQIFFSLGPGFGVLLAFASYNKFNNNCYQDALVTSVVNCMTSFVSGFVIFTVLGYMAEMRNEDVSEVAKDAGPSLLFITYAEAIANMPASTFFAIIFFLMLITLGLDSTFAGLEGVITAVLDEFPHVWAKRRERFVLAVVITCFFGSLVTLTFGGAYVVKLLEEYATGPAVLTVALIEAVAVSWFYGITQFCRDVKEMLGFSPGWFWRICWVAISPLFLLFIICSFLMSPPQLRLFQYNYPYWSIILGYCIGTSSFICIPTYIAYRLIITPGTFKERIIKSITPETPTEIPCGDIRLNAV
PROCEDURE DETAILS: Serotonin uptake inhibition in HEK-293 cells expressing hSERT
EXPERIMENTAL CONTEXT: transfected HEK-293 cells, [3H]-serotonin 20 nM, mean ± s.e.m. (n = 2)
pIC50: −log10 of the molar value.
MEASURE: pIC50

MOLECULE	EXPERIMENTAL VALUE
CC(C)c1cc2c(c(O)c1O)[C@@]13CCCC(C)(C)[C@@H]1[C@H](OC3=O)[C@H]2O [Rosmanol, rosmanol]	4.63
CC(C)c1cc2c(c(O)c1O)[C@@]13CCCC(C)(C)[C@@H]1C[C@@H]2OC3=O [Carnosol, carnosol]	4.58
